Attribution: patent US20030068675

# EXPERIMENTAL SYSTEM: T1, ZFP SBS#1022 (synthetic)
# T1 chain: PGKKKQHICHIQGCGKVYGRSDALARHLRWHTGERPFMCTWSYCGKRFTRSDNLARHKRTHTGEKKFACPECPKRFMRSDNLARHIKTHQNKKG
# EXPERIMENT SUMMARY: EMSA
# MEASUREMENT SETUP: tags: MBP fusion
QUANTITY MEASURED: pKd
The value called pKd is obtained by taking minus log10 of the concentration in mol/L.

Give recorded pKd. GAGGAGGTG (dsDNA) DNA 1: GAGGAGGTG DNA 2: CACCTCCTC
11.00
